Parameter IC50: see the listing below.
target: Human recombinant full length HDAC1 (Homo sapiens (Human), UniProt Q13547); assay: Test 3: HDAC1 assay; settings: substrate 5 μM acetyl-Gly-Ala-Lys(acetyl)-AMC
Sequence (Q13547 whole entry): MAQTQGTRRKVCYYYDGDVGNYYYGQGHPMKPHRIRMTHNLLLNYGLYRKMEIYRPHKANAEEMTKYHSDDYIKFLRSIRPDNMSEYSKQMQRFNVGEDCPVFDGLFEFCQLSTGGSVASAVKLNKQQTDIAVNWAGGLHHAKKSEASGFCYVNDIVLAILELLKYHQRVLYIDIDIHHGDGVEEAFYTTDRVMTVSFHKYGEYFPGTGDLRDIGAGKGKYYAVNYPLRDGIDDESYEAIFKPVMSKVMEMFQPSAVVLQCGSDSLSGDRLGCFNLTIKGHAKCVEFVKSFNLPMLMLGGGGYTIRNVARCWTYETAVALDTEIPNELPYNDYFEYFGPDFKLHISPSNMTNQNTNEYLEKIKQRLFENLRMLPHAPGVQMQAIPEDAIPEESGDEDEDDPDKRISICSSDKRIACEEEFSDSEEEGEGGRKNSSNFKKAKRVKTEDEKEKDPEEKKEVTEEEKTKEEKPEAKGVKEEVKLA

[
  {
    "Compound": "O=S(=O)(Nc1cccc(Cl)c1)c1ccc(-c2noc(C(F)(F)F)n2)cc1",
    "IC50": "6.2 µM"
  },
  {
    "Compound": "C[C@H](CO)NC(=O)c1ccc(-c2noc(C(F)(F)F)n2)cc1",
    "IC50": "> 10 µM"
  },
  {
    "Compound": "CC(C)CNC(=O)c1ccc(-c2noc(C(F)(F)F)n2)cc1",
    "IC50": "> 10 µM"
  },
  {
    "Compound": "O=C(NC1CCCCC1)c1ccc(-c2noc(C(F)(F)F)n2)cc1",
    "IC50": "> 10 µM"
  },
  {
    "Compound": "CC(C)[C@H](CN(C)C)NC(=O)c1ccc(-c2noc(C(F)(F)F)n2)cc1F",
    "IC50": "> 10 µM"
  },
  {
    "Compound": "CN1CC[C@@H](NC(=O)c2ccc(-c3noc(C(F)(F)F)n3)cc2)C1",
    "IC50": "1.8 µM"
  },
  {
    "Compound": "CN(C)C[C@H](Cc1ccccc1)NC(=O)c1ccc(-c2noc(C(F)(F)F)n2)cc1F",
    "IC50": "6.7 µM"
  },
  {
    "Compound": "O=C(NCC1CC1)c1ccc(-c2noc(C(F)(F)F)n2)cc1",
    "IC50": "> 10 µM"
  },
  {
    "Compound": "CCCCN(C)C[C@@H](C)NC(=O)c1ccc(-c2noc(C(F)(F)F)n2)cc1F",
    "IC50": "2.7 µM"
  },
  {
    "Compound": "Cc1ccc(NS(=O)(=O)c2ccc(-c3noc(C(F)(F)F)n3)cc2)cc1",
    "IC50": "5 µM"
  },
  {
    "Compound": "O=C(N[C@@H]1CCNC1)c1ccc(-c2noc(C(F)(F)F)n2)cc1F",
    "IC50": "> 10 µM"
  },
  {
    "Compound": "CC(C)C[C@H](CN(C)C)NC(=O)c1ccc(-c2noc(C(F)(F)F)n2)cc1",
    "IC50": "> 10 µM"
  },
  {
    "Compound": "O=S(=O)(Nc1ccccc1F)c1ccc(-c2noc(C(F)(F)F)n2)cc1",
    "IC50": "> 10 µM"
  },
  {
    "Compound": "CC(C)(C)OC(=O)NC1CCCCC1NC(=O)c1ccc(-c2noc(C(F)(F)F)n2)cc1 (stereo not drawn)",
    "IC50": "> 10 µM"
  },
  {
    "Compound": "CN(C)C(=O)c1ccc(-c2noc(C(F)(F)F)n2)cc1",
    "IC50": "> 10 µM"
  },
  {
    "Compound": "CCCN(C)C[C@@H](C)NC(=O)c1ccc(-c2noc(C(F)(F)F)n2)cc1",
    "IC50": "4 µM"
  },
  {
    "Compound": "CN(C)CCN(C)S(=O)(=O)c1ccc(-c2noc(C(F)(F)F)n2)cc1",
    "IC50": "> 10 µM"
  },
  {
    "Compound": "Cc1cc(NC(=O)c2ccc(-c3noc(C(F)(F)F)n3)cc2)cc(C)n1",
    "IC50": "> 10 µM"
  }
]

###

Parameter IC50: see the listing below.
target: Human recombinant full length HDAC6 (Homo sapiens (Human), UniProt Q9UBN7); assay: Test 4: HDAC6 assay; format: biochemical; conditions: Test 4; substrate 5 μM acetyl-Gly-Ala-Lys(acetyl)-AMC
Sequence (Q9UBN7 whole entry): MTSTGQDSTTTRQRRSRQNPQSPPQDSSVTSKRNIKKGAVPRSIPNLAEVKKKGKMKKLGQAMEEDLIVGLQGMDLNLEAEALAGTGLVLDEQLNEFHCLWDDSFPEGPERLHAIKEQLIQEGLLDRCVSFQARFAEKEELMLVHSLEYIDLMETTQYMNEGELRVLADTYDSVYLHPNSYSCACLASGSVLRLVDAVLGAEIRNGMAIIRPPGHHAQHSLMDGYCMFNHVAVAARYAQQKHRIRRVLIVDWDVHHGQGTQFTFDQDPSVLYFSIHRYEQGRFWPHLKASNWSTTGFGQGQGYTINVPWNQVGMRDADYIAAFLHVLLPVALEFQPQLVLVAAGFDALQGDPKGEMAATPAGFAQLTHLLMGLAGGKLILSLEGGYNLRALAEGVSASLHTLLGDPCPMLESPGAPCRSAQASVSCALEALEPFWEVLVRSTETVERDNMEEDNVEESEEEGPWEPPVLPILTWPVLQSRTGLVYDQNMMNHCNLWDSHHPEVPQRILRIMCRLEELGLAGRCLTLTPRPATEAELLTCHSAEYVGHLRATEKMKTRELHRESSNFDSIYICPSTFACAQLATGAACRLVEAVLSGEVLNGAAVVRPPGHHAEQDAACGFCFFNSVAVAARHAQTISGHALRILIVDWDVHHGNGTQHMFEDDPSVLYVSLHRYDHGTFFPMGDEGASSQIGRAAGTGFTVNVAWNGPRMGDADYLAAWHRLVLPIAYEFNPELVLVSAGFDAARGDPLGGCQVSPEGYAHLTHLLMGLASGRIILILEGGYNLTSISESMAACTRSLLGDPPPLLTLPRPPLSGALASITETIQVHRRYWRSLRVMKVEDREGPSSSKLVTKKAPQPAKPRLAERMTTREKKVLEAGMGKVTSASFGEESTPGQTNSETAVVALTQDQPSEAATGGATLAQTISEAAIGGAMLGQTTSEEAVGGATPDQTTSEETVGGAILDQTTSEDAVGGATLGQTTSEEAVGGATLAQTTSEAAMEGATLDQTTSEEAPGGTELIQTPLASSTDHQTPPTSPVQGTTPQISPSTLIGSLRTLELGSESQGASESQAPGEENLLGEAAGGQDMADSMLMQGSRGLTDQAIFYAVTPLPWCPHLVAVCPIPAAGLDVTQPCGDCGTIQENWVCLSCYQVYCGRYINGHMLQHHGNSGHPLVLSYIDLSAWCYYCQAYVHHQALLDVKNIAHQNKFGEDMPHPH
Assay metric: IC50 (µM)

[
  {
    "Compound": "O=C(NCC1CCCCN1)c1ccc(-c2noc(C(F)(F)F)n2)cc1 (stereo not drawn)",
    "Units text": "µM",
    "Operator symbol": "=",
    "Recorded measurement": 7
  },
  {
    "Compound": "COCCNC(=O)c1ccc(-c2noc(C(F)(F)F)n2)cc1",
    "Units text": "µM",
    "Operator symbol": "=",
    "Recorded measurement": 6.8
  },
  {
    "Compound": "CCNC(=O)c1ccc(-c2noc(C(F)(F)F)n2)cc1",
    "Units text": "µM",
    "Operator symbol": "=",
    "Recorded measurement": 4.1
  },
  {
    "Compound": "NC1CCCCC1NC(=O)c1ccc(-c2noc(C(F)(F)F)n2)cc1 (stereo not drawn)",
    "Units text": "µM",
    "Operator symbol": ">",
    "Recorded measurement": 10
  },
  {
    "Compound": "CCCN(CC)C[C@@H](C)NC(=O)c1ccc(-c2noc(C(F)(F)F)n2)cc1",
    "Units text": "µM",
    "Operator symbol": "=",
    "Recorded measurement": 3.7
  },
  {
    "Compound": "CCC(CC)NC(=O)c1ccc(-c2noc(C(F)(F)F)n2)cc1",
    "Units text": "µM",
    "Operator symbol": ">",
    "Recorded measurement": 10
  },
  {
    "Compound": "CCCCN(C)C[C@@H](C)NC(=O)c1ccc(-c2noc(C(F)(F)F)n2)cc1",
    "Units text": "µM",
    "Operator symbol": "=",
    "Recorded measurement": 3.1
  },
  {
    "Compound": "CN(C)C1CCN(C(=O)c2ccc(-c3noc(C(F)(F)F)n3)cc2)CC1",
    "Units text": "µM",
    "Operator symbol": ">",
    "Recorded measurement": 10
  },
  {
    "Compound": "CN1CCC(CNC(=O)c2ccc(-c3noc(C(F)(F)F)n3)cc2)CC1",
    "Units text": "µM",
    "Operator symbol": ">",
    "Recorded measurement": 10
  }
]

###

biological target: Human recombinant full length HDAC6 (Homo sapiens (Human), UniProt Q9UBN7); experiment: Test 4: HDAC6 assay; format: biochemical; conditions: Test 4; substrate 5 μM acetyl-Gly-Ala-Lys(acetyl)-AMC
Parameter log10(IC50): see the listing below.
Assay metric: log10(IC50) (log10 of the value in µM)

[
  {
    "Smiles": "O=C(NCCO)c1ccc(-c2noc(C(F)(F)F)n2)cc1",
    "log10(IC50)": 0.95
  },
  {
    "Smiles": "O=C(NCCNc1ccccc1)c1ccc(-c2noc(C(F)(F)F)n2)cc1",
    "log10(IC50)": 0.26
  },
  {
    "Smiles": "COCCNC(=O)Cc1ccc(-c2noc(C(F)(F)F)n2)cc1",
    "log10(IC50)": 0.84
  },
  {
    "Smiles": "O=S(=O)(Nc1ccc(Cl)cc1)c1ccc(-c2noc(C(F)(F)F)n2)cc1",
    "log10(IC50)": 0.30
  },
  {
    "Smiles": "O=C(NCc1ccc(CN2CCOCC2)cc1)c1ccc(-c2noc(C(F)(F)F)n2)cc1",
    "log10(IC50)": 0.76
  },
  {
    "Smiles": "CCOC(=O)CNC(=O)Cc1ccc(-c2noc(C(F)(F)F)n2)cc1",
    "log10(IC50)": 0.88
  },
  {
    "Smiles": "CN1CCN(C(=O)Cc2ccc(-c3noc(C(F)(F)F)n3)cc2)CC1",
    "log10(IC50)": 0.75
  },
  {
    "Smiles": "CCCN(CC)C[C@@H](C)NC(=O)c1ccc(-c2noc(C(F)(F)F)n2)cc1F",
    "log10(IC50)": 0.38
  },
  {
    "Smiles": "CC(C)NC(=O)Cc1ccc(-c2noc(C(F)(F)F)n2)cc1",
    "log10(IC50)": 0.49
  },
  {
    "Smiles": "Cc1ccc(NS(=O)(=O)c2ccc(-c3noc(C(F)(F)F)n3)cc2)cc1",
    "log10(IC50)": -0.13
  },
  {
    "Smiles": "O=C(N[C@@H]1CCNC1)c1ccc(-c2noc(C(F)(F)F)n2)cc1F",
    "log10(IC50)": 0.84
  },
  {
    "Smiles": "C[C@H](CN1CCOCC1)NC(=O)c1ccc(-c2noc(C(F)(F)F)n2)cc1F",
    "log10(IC50)": 0.51
  }
]

###

target: Human recombinant HDAC4 (Homo sapiens (Human)); assay: Test 2: HDAC4 assay (fluorogenic substrate, 5 μM acetyl-Gly-Ala-Lys(ε-trifluoroacetyl)-AMC); type: biochemical; settings: Test 2 (values without asterisk)
Sequence (P56524 2-1084): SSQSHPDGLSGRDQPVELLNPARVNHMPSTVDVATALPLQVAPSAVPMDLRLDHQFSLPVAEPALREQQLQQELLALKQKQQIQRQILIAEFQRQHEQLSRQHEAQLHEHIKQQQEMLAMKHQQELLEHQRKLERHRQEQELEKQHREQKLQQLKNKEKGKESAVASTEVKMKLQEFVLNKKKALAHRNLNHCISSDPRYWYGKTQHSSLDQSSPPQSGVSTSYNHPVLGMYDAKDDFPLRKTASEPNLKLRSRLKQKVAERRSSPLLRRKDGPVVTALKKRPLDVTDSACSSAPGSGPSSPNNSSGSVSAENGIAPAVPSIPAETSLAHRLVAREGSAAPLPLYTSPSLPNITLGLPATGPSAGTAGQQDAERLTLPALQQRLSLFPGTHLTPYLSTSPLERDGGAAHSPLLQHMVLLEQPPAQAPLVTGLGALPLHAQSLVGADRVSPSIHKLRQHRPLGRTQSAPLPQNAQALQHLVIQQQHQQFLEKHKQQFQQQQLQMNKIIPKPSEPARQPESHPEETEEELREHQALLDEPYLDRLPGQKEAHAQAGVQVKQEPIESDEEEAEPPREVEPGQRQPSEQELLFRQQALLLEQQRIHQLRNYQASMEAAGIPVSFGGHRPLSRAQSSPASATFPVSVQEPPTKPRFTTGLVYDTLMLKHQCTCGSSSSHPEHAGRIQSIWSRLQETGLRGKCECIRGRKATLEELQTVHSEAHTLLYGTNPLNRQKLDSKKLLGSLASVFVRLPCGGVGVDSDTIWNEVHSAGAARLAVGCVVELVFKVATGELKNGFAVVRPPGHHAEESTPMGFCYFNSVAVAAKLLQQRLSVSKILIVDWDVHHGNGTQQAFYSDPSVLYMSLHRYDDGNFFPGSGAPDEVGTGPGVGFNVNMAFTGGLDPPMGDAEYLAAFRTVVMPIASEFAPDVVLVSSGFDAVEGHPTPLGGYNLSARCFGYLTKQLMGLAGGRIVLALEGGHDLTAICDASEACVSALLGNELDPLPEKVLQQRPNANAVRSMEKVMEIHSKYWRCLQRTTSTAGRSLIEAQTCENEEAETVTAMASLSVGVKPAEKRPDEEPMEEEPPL
pIC50: −log10 of the molar value.

[
  {
    "Compound": "O=C(Nc1ccnc(O)c1)c1ccc(-c2noc(C(F)(F)F)n2)cc1",
    "Target": "Human recombinant HDAC4 (Homo sapiens (Human))",
    "pIC50": 6.85
  },
  {
    "Compound": "CCN(CC)C[C@@H](C)NC(=O)c1ccc(-c2noc(C(F)(F)F)n2)cc1F",
    "Target": "Human recombinant HDAC4 (Homo sapiens (Human))",
    "pIC50": 8.05
  },
  {
    "Compound": "CCCN(CCC)C[C@@H](C)NC(=O)c1ccc(-c2noc(C(F)(F)F)n2)cc1F",
    "Target": "Human recombinant HDAC4 (Homo sapiens (Human))",
    "pIC50": 8.85
  },
  {
    "Compound": "CN1CCC[C@@H](NC(=O)c2ccc(-c3noc(C(F)(F)F)n3)cc2)C1",
    "Target": "Human recombinant HDAC4 (Homo sapiens (Human))",
    "pIC50": 6.96
  },
  {
    "Compound": "CN1CCN(C(=O)Cc2ccc(-c3noc(C(F)(F)F)n3)cc2)CC1",
    "Target": "Human recombinant HDAC4 (Homo sapiens (Human))",
    "pIC50": 5.89
  },
  {
    "Compound": "O=C(NCc1ccccc1)c1ccc(-c2noc(C(F)(F)F)n2)cc1",
    "Target": "Human recombinant HDAC4 (Homo sapiens (Human))",
    "pIC50": 6.11
  },
  {
    "Compound": "CC(C)CNC(=O)c1ccc(-c2noc(C(F)(F)F)n2)cc1",
    "Target": "Human recombinant HDAC4 (Homo sapiens (Human))",
    "pIC50": 5.92
  },
  {
    "Compound": "CN1CC[C@@H](NC(=O)c2ccc(-c3noc(C(F)(F)F)n3)cc2)C1",
    "Target": "Human recombinant HDAC4 (Homo sapiens (Human))",
    "pIC50": 8.44
  },
  {
    "Compound": "CC(C)NC(=O)Cc1ccc(-c2noc(C(F)(F)F)n2)cc1",
    "Target": "Human recombinant HDAC4 (Homo sapiens (Human))",
    "pIC50": 6.01
  },
  {
    "Compound": "O=C(c1ccc(-c2noc(C(F)(F)F)n2)cc1)N1CCC(Cc2ccccc2)CC1",
    "Target": "Human recombinant HDAC4 (Homo sapiens (Human))",
    "pIC50": 6.54
  },
  {
    "Compound": "CON(C)C(=O)Cc1ccc(-c2noc(C(F)(F)F)n2)cc1",
    "Target": "Human recombinant HDAC4 (Homo sapiens (Human))",
    "pIC50": 5.96
  },
  {
    "Compound": "CN1CCC(NC(=O)c2ccc(-c3noc(C(F)(F)F)n3)cc2)CC1",
    "Target": "Human recombinant HDAC4 (Homo sapiens (Human))",
    "pIC50": 6.52
  },
  {
    "Compound": "Cc1cc(NC(=O)c2ccc(-c3noc(C(F)(F)F)n3)cc2F)cc(C)n1",
    "Target": "Human recombinant HDAC4 (Homo sapiens (Human))",
    "pIC50": 6.36
  },
  {
    "Compound": "O=C(Nc1ccnc(F)c1)c1ccc(-c2noc(C(F)(F)F)n2)cc1",
    "Target": "Human recombinant HDAC4 (Homo sapiens (Human))",
    "pIC50": 6.04
  },
  {
    "Compound": "O=C(N[C@@H]1CCNC1)c1ccc(-c2noc(C(F)(F)F)n2)cc1",
    "Target": "Human recombinant HDAC4 (Homo sapiens (Human))",
    "pIC50": 7.59
  },
  {
    "Compound": "O=C(NC1CCCCC1)c1ccc(-c2noc(C(F)(F)F)n2)cc1",
    "Target": "Human recombinant HDAC4 (Homo sapiens (Human))",
    "pIC50": 6.12
  },
  {
    "Compound": "O=C(NC1CCCNC1)c1ccc(-c2noc(C(F)(F)F)n2)cc1 (stereo not drawn)",
    "Target": "Human recombinant HDAC4 (Homo sapiens (Human))",
    "pIC50": 6.10
  },
  {
    "Compound": "CN(C)C[C@@H](Cc1ccccc1)NC(=O)c1ccc(-c2noc(C(F)(F)F)n2)cc1F",
    "Target": "Human recombinant HDAC4 (Homo sapiens (Human))",
    "pIC50": 6.66
  }
]
